Source of measurements: patent US20250206761A1

The reader will find reported pIC50 values listed item by item below.
tested on: NCI-H358 (ATCC-CRL5807) cells; assay: Cell viability assay, G12C (NCI-H358); assay type: cell-based, human; conditions: Homo sapiens; KRAS cell viability, NCI-H358, 72 hrs, Cell Counting Kit-8
pIC50: −log10 of the molar value.
quantity_name: pIC50

>>> observed_measurement("CO[C@@H](C)c1ncc(N2CCN(C)CC2)cc1-c1c2c3cc(c(F)cc3n1CC(F)(F)F)-c1csc(n1)C[C@H](NC(=O)[C@@H](COC1CN(C(=O)[C@H](F)Cl)C1)C(C)C)C(=O)N1CCC[C@H](N1)C(=O)OCC(C)(C)C2 (atropisomer, axis not shown; (M)) [Example 13]")
8.70
>>> observed_measurement("CC(C)[C@@H](C(=O)N[C@H]1Cc2cc(O)cc(c2)-c2ccc3c(C(C)(C)C#N)cn(c3c2)CC(C)(C)COC(=O)[C@@H]2CCCN(N2)C1=O)N1CCC2(CN(C(=O)CCl)C2)C1=O [RM44, reference compound]")
6.10
>>> observed_measurement("CO[C@@H](C)c1ncc(N2CCN(CC(F)(F)F)CC2)cc1-c1c2c3cc(c(F)cc3n1CC(F)(F)F)-c1csc(n1)C[C@H](NC(=O)[C@H](C(C)C)N1CCC3(CCN(C(=O)[C@H](F)Cl)CC3)C1=O)C(=O)N1CCC[C@H](N1)C(=O)OCC(C)(C)C2 (atropisomer, axis not shown; (M)) [Example 47]")
7.52
>>> observed_measurement("CO[C@@H](C)c1ncc(N2CCN(CC(F)(F)F)CC2)cc1-c1c2c3cc(c(F)cc3n1CC(F)(F)F)-c1csc(n1)C[C@H](NC(=O)[C@H](C(C)C)N1CCC3(CN(C(=O)[C@H](F)Cl)C3)C1=O)C(=O)N1CCC[C@H](N1)C(=O)OCC(C)(C)C2 (atropisomer, axis not shown; (M)) [Example 46]")
8.52
